Reference for the values: ChEMBL document CHEMBL1149432

PROCEDURE TEXT: Aqueous solubility at pH 7.4
MEASUREMENT CONDITIONS: aqueous
QUANTITY NAME: solubility (µg/mL)

compound=COc1ccc2cc(CCC(C)=O)ccc2c1 data_value=4.3

###

PROCEDURE TEXT: Chemical stability at pH 5.0
Type: physicochemical
MEASUREMENT CONDITIONS: buffer
QUANTITY NAME: half-life (h)

compound=COc1ccc2cc(CC/C(C)=N/O)ccc2c1 data_value=16.3

###

PROCEDURE TEXT: Metabolic stability by incubation with human liver microsomes
Format: ADME, Microsome
QUANTITY NAME: half-life (h)

compound="CC(C(=O)O)c1cccc(/C(=N\\O)c2ccccc2)c1 (configuration not stated)" unit_label=h data_value=83.6
compound=COc1ccc2cc(CC/C(C)=N/O)ccc2c1 unit_label=h data_value=0.85

###

PROCEDURE TEXT: Half life in rat urine at 37 °C
MEASUREMENT CONDITIONS: in vitro
QUANTITY NAME: half-life (h)

compound=COc1ccc2cc(CC/C(C)=N/O)ccc2c1 unit_label=h data_value=69

###

PROCEDURE TEXT: Metabolic stability by incubation with rat liver microsomes treated with Dexamethasone
Type: ADME, Microsome
QUANTITY NAME: half-life (h)

compound="CC(C(=O)O)c1cccc(/C(=N\\O)c2ccccc2)c1 (configuration not stated)" data_value=72
compound=COc1ccc2cc(CC/C(C)=N/O)ccc2c1 data_value=0.767

###

PROCEDURE TEXT: Distribution coefficient at pH 7.4, log D
MEASUREMENT CONDITIONS: octanol/water
Reported logD values are given for each entry in this list.
QUANTITY NAME: logD

compound="CC(C(=O)O)c1cccc(C(=O)c2ccccc2)c1 (stereo not drawn) [KETOPROFEN]" data_value=0.008
compound="COc1ccc2cc(CCC(C)=O)ccc2c1 [NABUMETONE]" data_value=3.3
compound=COc1ccc2cc(CC/C(C)=N/O)ccc2c1 data_value=3.6
